Source listed as patent US20080033006A1.

- Test system: pentagastrin-stimulated acid secretion of the perfused rat stomach
- ASSAY NOTES: Secretion-inhibiting action on the perfused rat stomach (pentagastrin-stimulated acid secretion)
- Format: in vivo
- DETAILS: intraduodenal, anesthetized CD rat, dose 1 μmol/kg i.d.
OBSERVATION TYPE: inhibition in vivo at 1 µmol/kg

INSERT INTO measurements (compound, observation_type, obs_value) VALUES
  ('CCc1cccc(C)c1CNc1cc(CN(C)C)cn2nc(C)nc12.Cl [Example 7, hydrochloride]', 'inhibition in vivo at 1 µmol/kg', '> 25%'),
  ('CCc1cccc(C)c1CNc1cc(CN)cn2nc(C)nc12', 'inhibition in vivo at 1 µmol/kg', '< 25%'),
  ('CCc1cccc(C)c1CNc1cc(COC)cn2nc(C)nc12', 'inhibition in vivo at 1 µmol/kg', '> 25%'),
  ('CCc1cccc(C)c1CNc1cc(C(=O)N(C)C)cn2nc(C)nc12', 'inhibition in vivo at 1 µmol/kg', '> 25%'),
  ('CCc1cccc(C)c1CNc1cc(CN2CCOCC2)cn2nc(C)nc12', 'inhibition in vivo at 1 µmol/kg', '< 25%'),
  ('CCc1cccc(C)c1CNc1cc(CO)cn2nc(C)nc12', 'inhibition in vivo at 1 µmol/kg', '< 25%'),
  ('CCc1cccc(C)c1CNc1cc(CNC)cn2nc(C)nc12', 'inhibition in vivo at 1 µmol/kg', '> 25%'),
  ('CCc1cccc(C)c1CNc1cc(COCCOC)cn2nc(C)nc12.Cl [Example 13, hydrochloride]', 'inhibition in vivo at 1 µmol/kg', '> 25%'),
  ('CCc1cccc(C)c1CNc1cc(Cn2ccnc2)cn2nc(C)nc12', 'inhibition in vivo at 1 µmol/kg', '> 25%');
